B1: POU domain, class 4, transcription factor 1, residues 266 to 347; numbered along this chain, Q01851 (parent)
chain: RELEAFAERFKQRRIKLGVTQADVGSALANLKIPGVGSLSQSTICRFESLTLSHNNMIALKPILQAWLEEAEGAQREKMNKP

variants of: B1; assay: abundance fitness (aPCA) (normalised: wild type 0, dead -1); higher = more abundant; growth selection in yeast, the domain comes from the species named; conditions: Homo sapiens
// label = Fulfilled if abundance fitness is not less than -0.05, otherwise Not fulfilled

Some entries whose results are on file:
[
  {
    "residue.string": "RELEAFAERFKQRRIKLGVTQADVGSALANLKIPGVGSLSQSTICRFDSLTLSHNNMIALKPILQAWLEEAEGAQREKMNKP [E48D]",
    "class.assignment": "Not fulfilled"
  },
  {
    "residue.string": "RELEAFAERFKQRRIKLGVTAADVGSALANLKIPGVGSLSQSTICRFESLTLSHNNMIALKPILQAWLEEAEGAQREKMNKP [Q21A]",
    "class.assignment": "Fulfilled"
  },
  {
    "residue.string": "RELEAFAERFKQRRIKLGVTQADVGSALANLKIPGVGSLSQSTICRFESLTLSHNNMIALKPILQAWLEEAEGFQREKMNKP [A74F]",
    "class.assignment": "Fulfilled"
  },
  {
    "residue.string": "RELEAFAERFKQRRIKLGVTQADVGSALANLKIPGVGGLSQSTICRFESLTLSHNNMIALKPILQAWLEEAEGAQREKMNKP [S38G]",
    "class.assignment": "Not fulfilled"
  },
  {
    "residue.string": "RELEAFAERFKQRRIKLGVTQADVGSALANLKIPGVGSLSQSTICRFESLTLSHNNMIALKPILQAALEEAEGAQREKMNKP [W67A]",
    "class.assignment": "Not fulfilled"
  }
]

Data request: Kindly determine if abundance fitness recorded for RELEAFAERFKQRRIKLGVTQADVGSALANLKIPGVGSLSQSTICRFESLTLSHNNMIALKPILQAWLTEAEGAQREKMNKP [E69T] is above or exactly -0.05.
Data returned: Not fulfilled

Data request: Moving on to RELEAFAERFKQRRIKLGVTQADVGLALANLKIPGVGSLSQSTICRFESLTLSHNNMIALKPILQAWLEEAEGAQREKMNKP [S26L]
Data returned: Fulfilled

Data request: Moving on to RELEAFAERFKQRRIKLGVTQADVHSALANLKIPGVGSLSQSTICRFESLTLSHNNMIALKPILQAWLEEAEGAQREKMNKP [G25H]
Data returned: Fulfilled

Data request: Moving on to RELEAFAERFKQRRIKLGVTQADVGSALANLKIPGVGSLSISTICRFESLTLSHNNMIALKPILQAWLEEAEGAQREKMNKP [Q41I]
Data returned: Fulfilled

Data request: Moving on to RELEAFAERFKQRRIKLGVTQADVGSALANLKIPGVGSLSQSTICRFESLTLSHNNMIALKAILQAWLEEAEGAQREKMNKP [P62A]
Data returned: Not fulfilled

Data request: Moving on to RELEAFAERFKQRRIKLGVTQIDVGSALANLKIPGVGSLSQSTICRFESLTLSHNNMIALKPILQAWLEEAEGAQREKMNKP [A22I]
Data returned: Not fulfilled

Data request: Moving on to RELEAFAERFKQRRIKLGVTQAHVGSALANLKIPGVGSLSQSTICRFESLTLSHNNMIALKPILQAWLEEAEGAQREKMNKP [D23H]
Data returned: Not fulfilled

Data request: Moving on to RELEAFAERFKQRRIKLGVTQEDVGSALANLKIPGVGSLSQSTICRFESLTLSHNNMIALKPILQAWLEEAEGAQREKMNKP [A22E]
Data returned: Fulfilled

Data request: Moving on to RELEAFAERFKQRRIKLGVTQADVGSALANLKIPGVGSLSQSTMCRFESLTLSHNNMIALKPILQAWLEEAEGAQREKMNKP [I44M]
Data returned: Not fulfilled

Data request: Moving on to RELEAFAERFKQRRIKLGVTQADVGSALANLKIPGVGSLSQSTICRFESTTLSHNNMIALKPILQAWLEEAEGAQREKMNKP [L50T]
Data returned: Not fulfilled

Data request: Moving on to RELEAFAERFKQRRIKLGVTQADRGSALANLKIPGVGSLSQSTICRFESLTLSHNNMIALKPILQAWLEEAEGAQREKMNKP [V24R]
Data returned: Not fulfilled

Data request: Moving on to RELEYFAERFKQRRIKLGVTQADVGSALANLKIPGVGSLSQSTICRFESLTLSHNNMIALKPILQAWLEEAEGAQREKMNKP [A5Y]
Data returned: Not fulfilled

Data request: Moving on to RELEAFAERFKQRRIKLGVTQADVSSALANLKIPGVGSLSQSTICRFESLTLSHNNMIALKPILQAWLEEAEGAQREKMNKP [G25S]
Data returned: Fulfilled

Data request: Moving on to RELEAFAERFKQRRIKLGVTQADVGSALANLKIPGVGSLSQSTICRFESLTLSHNNMIALKPILQAELEEAEGAQREKMNKP [W67E]
Data returned: Not fulfilled

Data request: Moving on to RELEAFAERFKQRRIKLGVTQADVGSALANLKIPGVGSLSQSTICRFESNTLSHNNMIALKPILQAWLEEAEGAQREKMNKP [L50N]
Data returned: Fulfilled

Data request: Moving on to RELEAFAERFKQRRIKLGVTQADVGSALANLKIPGVGSLSQSTICRFESLPLSHNNMIALKPILQAWLEEAEGAQREKMNKP [T51P]
Data returned: Not fulfilled

Data request: Moving on to RELEAFAERFKQRRIKLGVTQADVGSALANLKIPGVGSLSQSTICRFENLTLSHNNMIALKPILQAWLEEAEGAQREKMNKP [S49N]
Data returned: Fulfilled

Data request: Moving on to RELEAFAERFKQRRIELGVTQADVGSALANLKIPGVGSLSQSTICRFESLTLSHNNMIALKPILQAWLEEAEGAQREKMNKP [K16E]
Data returned: Fulfilled

Data request: Moving on to AELEAFAERFKQRRIKLGVTQADVGSALANLKIPGVGSLSQSTICRFESLTLSHNNMIALKPILQAWLEEAEGAQREKMNKP [R1A]
Data returned: Not fulfilled

Data request: Moving on to RELEAFAERFKQRRIKLGVTQADVGSALANLKIPGVGSLSQSTICRFESLTLSHNNMIALKGILQAWLEEAEGAQREKMNKP [P62G]
Data returned: Not fulfilled

Data request: Moving on to RELEAFAERFKQRRIKLGVTQADVGSALANLKIPGVGSLSQSTICRFESLTLSHNNMNALKPILQAWLEEAEGAQREKMNKP [I58N]
Data returned: Fulfilled
